details: in cyclohexane, 315.65 K
QUANTITY_MEASURED: solubility (mole fraction)
Give bare numbers.

Quick one: give measured solubility (mole fraction) for `CCOC(=O)Cc1c(C(=O)OCC)sc(N(CC(=O)OCC)CC(=O)OCC)c1C#N`
0.000444

###

conditions: in ethanol, 290.65 K
QUANTITY_MEASURED: solubility (mole fraction)
Numbers only.

Quick one: give measured solubility (mole fraction) for `CCOC(=O)Cc1c(C(=O)OCC)sc(N(CC(=O)OCC)CC(=O)OCC)c1C#N`
0.000971

###

conditions: in acetone, 295.65 K
QUANTITY_MEASURED: solubility (mole fraction)
Give bare numbers.

Quick one: give measured solubility (mole fraction) for `CCOC(=O)Cc1c(C(=O)OCC)sc(N(CC(=O)OCC)CC(=O)OCC)c1C#N`
0.0538

###

conditions: in toluene, 318.15 K
QUANTITY_MEASURED: solubility (mole fraction)
Answers are plain numbers.

Quick one: give measured solubility (mole fraction) for `CCOC(=O)Cc1c(C(=O)OCC)sc(N(CC(=O)OCC)CC(=O)OCC)c1C#N`
0.0835

###

conditions: in cyclohexane, 290.65 K
QUANTITY_MEASURED: solubility (mole fraction)
Give bare numbers.

Quick one: give measured solubility (mole fraction) for `CCOC(=O)Cc1c(C(=O)OCC)sc(N(CC(=O)OCC)CC(=O)OCC)c1C#N`
8.6e-05

###

conditions: in n-propanol, 318.15 K
QUANTITY_MEASURED: solubility (mole fraction)
Give bare numbers.

Quick one: give measured solubility (mole fraction) for `CCOC(=O)Cc1c(C(=O)OCC)sc(N(CC(=O)OCC)CC(=O)OCC)c1C#N`
0.0104

###

conditions: in acetonitrile, 305.65 K
QUANTITY_MEASURED: solubility (mole fraction)
Answers are plain numbers.

Quick one: give measured solubility (mole fraction) for `CCOC(=O)Cc1c(C(=O)OCC)sc(N(CC(=O)OCC)CC(=O)OCC)c1C#N`
0.0433

###

conditions: in ethanol, 308.15 K
QUANTITY_MEASURED: solubility (mole fraction)

Quick one: give measured solubility (mole fraction) for `CCOC(=O)Cc1c(C(=O)OCC)sc(N(CC(=O)OCC)CC(=O)OCC)c1C#N`
0.0038

###

conditions: in cyclohexane, 318.15 K
QUANTITY_MEASURED: solubility (mole fraction)
Numbers only.

Quick one: give measured solubility (mole fraction) for `CCOC(=O)Cc1c(C(=O)OCC)sc(N(CC(=O)OCC)CC(=O)OCC)c1C#N`
0.000516

###

details: in acetone, 305.65 K
QUANTITY_MEASURED: solubility (mole fraction)

Quick one: give measured solubility (mole fraction) for `CCOC(=O)Cc1c(C(=O)OCC)sc(N(CC(=O)OCC)CC(=O)OCC)c1C#N`
0.073

###

conditions: in toluene, 300.65 K
QUANTITY_MEASURED: solubility (mole fraction)
Answers are plain numbers.

Quick one: give measured solubility (mole fraction) for `CCOC(=O)Cc1c(C(=O)OCC)sc(N(CC(=O)OCC)CC(=O)OCC)c1C#N`
0.0328

###

settings: in ethanol, 323.15 K
QUANTITY_MEASURED: solubility (mole fraction)
Answers are plain numbers.

Quick one: give measured solubility (mole fraction) for `CCOC(=O)Cc1c(C(=O)OCC)sc(N(CC(=O)OCC)CC(=O)OCC)c1C#N`
0.0107

###

settings: in ethanol, 313.15 K
QUANTITY_MEASURED: solubility (mole fraction)
Answers are plain numbers.

Quick one: give measured solubility (mole fraction) for `CCOC(=O)Cc1c(C(=O)OCC)sc(N(CC(=O)OCC)CC(=O)OCC)c1C#N`
0.00543

###

conditions: in acetonitrile, 323.15 K
QUANTITY_MEASURED: solubility (mole fraction)

Quick one: give measured solubility (mole fraction) for `CCOC(=O)Cc1c(C(=O)OCC)sc(N(CC(=O)OCC)CC(=O)OCC)c1C#N`
0.0805

###

conditions: in ethanol, 285.65 K
QUANTITY_MEASURED: solubility (mole fraction)
Answers are plain numbers.

Quick one: give measured solubility (mole fraction) for `CCOC(=O)Cc1c(C(=O)OCC)sc(N(CC(=O)OCC)CC(=O)OCC)c1C#N`
0.000635

###

details: in toluene, 308.15 K
QUANTITY_MEASURED: solubility (mole fraction)
Answers are plain numbers.

Quick one: give measured solubility (mole fraction) for `CCOC(=O)Cc1c(C(=O)OCC)sc(N(CC(=O)OCC)CC(=O)OCC)c1C#N`
0.0498

###

conditions: in ethyl acetate, 290.65 K
QUANTITY_MEASURED: solubility (mole fraction)
One number for each entry.

Quick one: give measured solubility (mole fraction) for `CCOC(=O)Cc1c(C(=O)OCC)sc(N(CC(=O)OCC)CC(=O)OCC)c1C#N`
0.0339

###

conditions: in ethyl acetate, 313.15 K
QUANTITY_MEASURED: solubility (mole fraction)
Give bare numbers.

Quick one: give measured solubility (mole fraction) for `CCOC(=O)Cc1c(C(=O)OCC)sc(N(CC(=O)OCC)CC(=O)OCC)c1C#N`
0.105

###

settings: in ethyl acetate, 283.15 K
QUANTITY_MEASURED: solubility (mole fraction)

Quick one: give measured solubility (mole fraction) for `CCOC(=O)Cc1c(C(=O)OCC)sc(N(CC(=O)OCC)CC(=O)OCC)c1C#N`
0.0224

###

conditions: in n-butanol, 318.15 K
QUANTITY_MEASURED: solubility (mole fraction)
Answers are plain numbers.

Quick one: give measured solubility (mole fraction) for `CCOC(=O)Cc1c(C(=O)OCC)sc(N(CC(=O)OCC)CC(=O)OCC)c1C#N`
0.00696

###

conditions: in ethyl acetate, 323.15 K
QUANTITY_MEASURED: solubility (mole fraction)

Quick one: give measured solubility (mole fraction) for `CCOC(=O)Cc1c(C(=O)OCC)sc(N(CC(=O)OCC)CC(=O)OCC)c1C#N`
0.163

###

settings: in ethanol, 295.65 K
QUANTITY_MEASURED: solubility (mole fraction)
Numbers only.

Quick one: give measured solubility (mole fraction) for `CCOC(=O)Cc1c(C(=O)OCC)sc(N(CC(=O)OCC)CC(=O)OCC)c1C#N`
0.00148

###

conditions: in cyclohexane, 323.15 K
QUANTITY_MEASURED: solubility (mole fraction)
Answers are plain numbers.

Quick one: give measured solubility (mole fraction) for `CCOC(=O)Cc1c(C(=O)OCC)sc(N(CC(=O)OCC)CC(=O)OCC)c1C#N`
0.0007

###

conditions: in methanol, 315.65 K
QUANTITY_MEASURED: solubility (mole fraction)
Numbers only.

Quick one: give measured solubility (mole fraction) for `CCOC(=O)Cc1c(C(=O)OCC)sc(N(CC(=O)OCC)CC(=O)OCC)c1C#N`
0.0128

###

conditions: in acetone, 298.15 K
QUANTITY_MEASURED: solubility (mole fraction)
Give bare numbers.

Quick one: give measured solubility (mole fraction) for `CCOC(=O)Cc1c(C(=O)OCC)sc(N(CC(=O)OCC)CC(=O)OCC)c1C#N`
0.0582

###

conditions: in n-butanol, 320.65 K
QUANTITY_MEASURED: solubility (mole fraction)
Give bare numbers.

Quick one: give measured solubility (mole fraction) for `CCOC(=O)Cc1c(C(=O)OCC)sc(N(CC(=O)OCC)CC(=O)OCC)c1C#N`
0.00838

###

settings: in methanol, 310.65 K
QUANTITY_MEASURED: solubility (mole fraction)
Answers are plain numbers.

Quick one: give measured solubility (mole fraction) for `CCOC(=O)Cc1c(C(=O)OCC)sc(N(CC(=O)OCC)CC(=O)OCC)c1C#N`
0.00925

###

conditions: in ethanol, 300.65 K
QUANTITY_MEASURED: solubility (mole fraction)
Answers are plain numbers.

Quick one: give measured solubility (mole fraction) for `CCOC(=O)Cc1c(C(=O)OCC)sc(N(CC(=O)OCC)CC(=O)OCC)c1C#N`
0.00216

###

conditions: in acetone, 320.65 K
QUANTITY_MEASURED: solubility (mole fraction)

Quick one: give measured solubility (mole fraction) for `CCOC(=O)Cc1c(C(=O)OCC)sc(N(CC(=O)OCC)CC(=O)OCC)c1C#N`
0.116

###

conditions: in ethyl acetate, 320.65 K
QUANTITY_MEASURED: solubility (mole fraction)

Quick one: give measured solubility (mole fraction) for `CCOC(=O)Cc1c(C(=O)OCC)sc(N(CC(=O)OCC)CC(=O)OCC)c1C#N`
0.146

###

details: in methanol, 283.15 K
QUANTITY_MEASURED: solubility (mole fraction)
Answers are plain numbers.

Quick one: give measured solubility (mole fraction) for `CCOC(=O)Cc1c(C(=O)OCC)sc(N(CC(=O)OCC)CC(=O)OCC)c1C#N`
0.0012

###

conditions: in cyclohexane, 320.65 K
QUANTITY_MEASURED: solubility (mole fraction)
One number for each entry.

Quick one: give measured solubility (mole fraction) for `CCOC(=O)Cc1c(C(=O)OCC)sc(N(CC(=O)OCC)CC(=O)OCC)c1C#N`
0.000596

Attribution: BigSolDB 2.1
